- TESTED TARGET: chimeric BTLA of humanised-BTLA mice (human extracellular region, murine transmembrane and signaling … (human; mouse, UniProt Q7TSA3 184-306, limits assumed); note: test concentration or dose not given here
- Sequence (Q7TSA3 other isoform, or with tags, fused parts or gaps mutant limits assumed): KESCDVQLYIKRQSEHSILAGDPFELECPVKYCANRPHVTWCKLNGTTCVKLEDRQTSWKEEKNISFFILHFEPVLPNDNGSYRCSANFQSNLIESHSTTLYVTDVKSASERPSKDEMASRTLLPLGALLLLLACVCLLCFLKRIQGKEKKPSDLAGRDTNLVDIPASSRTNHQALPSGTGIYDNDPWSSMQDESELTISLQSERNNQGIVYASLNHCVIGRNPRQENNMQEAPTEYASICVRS
- MEASUREMENT PROTOCOL: cell-based or functional assay
Each record here notes measured AntiCD3/CD28 (CD69+ CD4 T cells) repeat 2.
TEST READOUT: AntiCD3/CD28 (CD69+ CD4 T cells) repeat 2 (% inhibition)

BINDER | UNIT STRING | MEASURED NUMBER
8C4 (antibody, IgG1, V domains shown, mIgG1) VH: DVQLQESGPGMVKPSQSLSLTCTVTGYSITSGYDWHWIRHFPGNKLEWMGYISYSGSTNYNPSLKSRISITHDTSKNHFFLKLNSVTTEDTATYYCARGTPVVAEDYFDYWGQGTTLTVSS VL: QAVVTQESALSTSPGETVTLTCRSSTGAVTTSNYANWVQEKPDHLFTGLIGATNNRAPGVPARFSGSLIGDKAALTITGAQTEDEAIYFCALWYSNHLVFGGGTKLTVLG | % inhibition | 29
12F11 (antibody, IgG1, V domains shown, mIgG1) VH: EVQLQQSGPELVKPGASVKISCKASGYTFTDYYMNWVKQSHGKSLEWIGDINPNNGGTSYNQKFKGKATLTVDKSSSTAYMELRSLTSEDSAVYYCARWRQLRSDYWGQGTTLTVSS VL: DIQMTQSPASQSASLGESVTITCLASQTIGTWLAWYQQKPGKSPQLLIYAATSLADGVPSRFSGSGSGTKFSFKISSLQAEDFVSYYCQQLYSTPLTFGAGTKLELK | % inhibition | 40
4B1 (antibody, IgG1, V domains shown, mIgG1) VH: QVQLQQSGAELARPGASVRLSCKASGYTFTSYGLIWLKQRTGQGLEWIGEIYPRSGSTYYNEWFKGKATLTADKSSNTAFMELRSLTSEDSAVYFCARRRGTGDGFDYWGQGTILTVSS VL: DIQMTQTTSSLSASLGDRVTISCSASQGISNYLNWYQQKPDGTVKLLIYYTSSLHSGVPSRFSGSGSGTDYSLTISNLEPEDIATYYCQQYIELPFTFGSGTKLEIK | % inhibition | 41
21C7 (antibody, IgG1, V domains shown, mIgG1) VH: QIQLQQSGPELVKPGASVKISCKASGYAFSSSWMNWVKKRPGKGLEWIGRIYPGDGDANYNGKFKGKATLTADKSSSTAYMQLSSLTSEDSAVYFCAGEGHYYGSGYRWYLDVWGTGTTVTVSS VL: DIQMTQSPASLSVSVGETVTITCRASENIYSNLAWYQQKQGKSPQLLVYAATNLADGVPSRFSGSGSGTQYSLKINSLQSEDFGSYYCQHFRGAPFTFGSGTKLEIK | % inhibition | 35
